- assay.details: Inhibitory activity against class A TEM-1 beta-lactamase
measure: IC50 (µM)

O=C(O)C1=C(I)CS(=O)(=O)[C@@H]2/C(=C\c3ccccn3)C(=O)N12 = 1.28
O=C(O)C1=C(c2cccs2)CS(=O)(=O)[C@@H]2/C(=C\c3ccccn3)C(=O)N12 = 3.54
O=C(/C=C/C1=C(C(=O)O)N2C(=O)/C(=C/c3ccccn3)[C@H]2S(=O)(=O)C1)NO = 7.69
O=C(O)C1=CCS(=O)(=O)[C@@H]2/C(=C\c3ccccn3)C(=O)N12 = 18.5
N=C(N)NCCNC(=O)C=CC1=C(C(=O)O)N2C(=O)C(=Cc3ccccn3)[C@H]2S(=O)(=O)C1 = 0.0083
O=C(O)C1=C(F)CS(=O)(=O)[C@@H]2/C(=C\c3ccccn3)C(=O)N12 = 1.84
O=C(/C=C/C1=C(C(=O)O)N2C(=O)/C(=C/c3ccccn3)[C@H]2S(=O)(=O)C1)Nc1c(F)c(F)c(F)c(F)c1F = 4.28
O=C(O)C1=C(c2ccccc2)CS(=O)(=O)[C@@H]2/C(=C\c3ccccn3)C(=O)N12 = 9.14
O=C(O)C1=C(S(=O)(=O)c2ccccc2)CS(=O)(=O)[C@@H]2/C(=C\c3ccccn3)C(=O)N12 = 0.0094
O=C(/C=C/C1=C(C(=O)O)N2C(=O)/C(=C/c3ccccn3)[C@H]2S(=O)(=O)C1)Nc1ccc(O)cc1 = 0.11
O=C(O)C1=C(C(=O)O)N2C(=O)/C(=C/c3ccccn3)[C@H]2S(=O)(=O)C1 = 10.4
NNC(=O)/C=C/C1=C(C(=O)O)N2C(=O)/C(=C/c3ccccn3)[C@H]2S(=O)(=O)C1 = 0.39
O=C(O)C1=C(Cl)CS(=O)(=O)[C@@H]2/C(=C\c3ccccn3)C(=O)N12 = 1.82
O=C(/C=C/C1=C(C(=O)O)N2C(=O)/C(=C/c3ccccn3)[C@H]2S(=O)(=O)C1)NC1CC1 = 0.24
O=C(/C=C/C1=C(C(=O)O)N2C(=O)/C(=C/c3ccccn3)[C@H]2S(=O)(=O)C1)NCC(F)(F)F = 0.078
CS(=O)(=O)C1=C(C(=O)O)N2C(=O)/C(=C/c3ccccn3)[C@H]2S(=O)(=O)C1 = 0.0076
CSC1=C(C(=O)O)N2C(=O)/C(=C/c3ccccn3)[C@H]2S(=O)(=O)C1 = 1.06
O=C(O)C1=C(Br)CS(=O)(=O)[C@@H]2/C(=C\c3ccccn3)C(=O)N12 = 0.791
NCCCNC(=O)/C=C/C1=C(C(=O)O)N2C(=O)/C(=C/c3ccccn3)[C@H]2S(=O)(=O)C1 = 1.59
O=C(/C=C/C1=C(C(=O)O)N2C(=O)/C(=C/c3ccccn3)[C@H]2S(=O)(=O)C1)NCc1ccccc1 = 1.4
CN1CCN(C(=O)/C=C/C2=C(C(=O)O)N3C(=O)/C(=C/c4ccccn4)[C@H]3S(=O)(=O)C2)CC1 = 0.053
O=C(/C=C/C1=C(C(=O)O)N2C(=O)/C(=C/c3ccccn3)[C@H]2S(=O)(=O)C1)NCCO = 0.07
O=C(O)C1=C(Sc2ccccc2)CS(=O)(=O)[C@@H]2/C(=C\c3ccccn3)C(=O)N12 = 0.012
NC(=O)/C=C/C1=C(C(=O)O)N2C(=O)/C(=C/c3ccccn3)[C@H]2S(=O)(=O)C1 = 0.262
